System: HL-60(TB) leukemia
PROCEDURE_TEXT: NCI tumour cell line growth inhibition, 48 h
QUANTITY_KIND: TGI (µM)

> print(dat)
                                   molecule  censoring.sign  value
1                CCOc1ccc2ccccc2c1NC1=NCCO1               =   49.6
2  CC(=O)Oc1ccc(N2C(=O)C3c4[nH]c5ccccc5c4C4CCC(C(C)(C)C)CC4C3C2=O)cc1 (stereo unspecified)               =   5.47
3  O=C1C2=C(c3ccccc31)C(c1cccc(Cl)c1)NC(=S)N2 (stereo unspecified)               >    100
4  CSc1c(C(=O)Nc2ccc(C)cc2)c(N)nn1-c1ccccc1               >    100
5              CN(C)CCOc1ccc(I)cc1Cc1ccccc1               =   18.1
6  COc1ccc(NC(=O)CC(=O)n2nc(C)c(N=Nc3ccc(C)c(C)c3)c2C)cc1               >    100
